Tested on: BDF1 mice, Lewis lung carcinoma iv, survival T/C
Assay: NCI In Vivo Anticancer Drug Screen. Data for tumor model Lewis Lung Carcinoma (intravenous) in B6D2F1 (BDF1) mice
Conditions: endpoint: median survival time; dose: 50.0 mg/kg/injection; schedule: Q01DX009 (ip); vehicle: suspension in saline; higher = longer survival
Toxic doses and inconclusive results are not listed.
Entries and their T/C values follow.

Worked cases, T/C given:
CC(=O)OCC1OC(n2cnc3c(=S)nc[nH]c32)C(OC(C)=O)C1OC(C)=O (centres undefined) ... 100 % of control
Nc1nc2n[nH]nc2c(=O)[nH]1 ... 98 % of control
CC[N](CC)[Ge]([CH2]C)[CH2]C.CC[N](CC)[Ge]([CH2]C)[CH2]C ... 100 % of control

We next turn to a different molecule, shown below.
Asked: What value of T/C has been reported for the following molecule? CCOC(=O)c1c[nH]c2oc(/C=N/N3CC(CN4CCOCC4)OC3=O)cc2c1=O (centres undefined)
Given back: 114 % of control

====

Entries and their T/C values follow.
Test system: BDF1 mice, Lewis lung carcinoma iv, survival T/C
Test: NCI In Vivo Anticancer Drug Screen. Data for tumor model Lewis Lung Carcinoma (intravenous) in B6D2F1 (BDF1) mice
Settings: endpoint: median survival time; dose: 1.56 mg/kg/injection; schedule: Q01DX009 (ip); vehicle: saline; higher = longer survival
Procedure: The antitumor activity of compounds was measured in mice bearing transplantable tumors. Survival or tumor size were measured and the results are expressed as the measurement made in the treated group (T) divided by the measurement made in the vehicle treated control group (C). The tumor model used in this assay is Lewis Lung Carcinoma (intravenous) in B6D2F1 (BDF1) mice
Inconclusive results and toxic doses are left out.

CN(C)C(=O)c1cccc(COc2ccc(N3C(N)=NC(N)=NC3(C)C)cc2Cl)c1 ... 92 % of control
N=[N+]=CC(=O)OCC(N)C(=O)O (centres undefined) ... 103 % of control
NNC(=S)N/N=C/c1ccccn1 ... 98 % of control
OCCOCCN1CCN(CCCN2c3ccccc3Sc3ccc(C(F)(F)F)cc32)CC1 ... 110 % of control
CCCNC1=C(C)C(=O)C2=C(C1=O)[C@H](COC(N)=O)[C@]1(OC)[C@@H]3N[C@@H]3CN21 ... 102 % of control
[Cl][Hg][Cl] ... 93 % of control

Asked: What value of T/C has been reported for the following molecule? OCCN1CCN(CC/C=C2/c3ccccc3Sc3ccc(Cl)cc32)CC1
Given back: 111 % of control

Asked: Entry C[CH2][Sn]([CH2]C)([O]S(C)(=O)=O)[O]S(C)(=O)=O please
Given back: 105 % of control

Asked: Entry ClCC[Se](Cl)(Cl)c1ccccc1 please
Given back: 109 % of control

====

Tested on: BDF1 mice, Lewis lung carcinoma iv, survival T/C
Assay: NCI In Vivo Anticancer Drug Screen. Data for tumor model Lewis Lung Carcinoma (intravenous) in B6D2F1 (BDF1) mice
Conditions: endpoint: median survival time; dose: 0.25 mg/kg/injection; schedule: Q01DX009 (ip); vehicle: saline; higher = longer survival
Inconclusive results and toxic doses are left out.
Entries and their T/C values follow.

CC(=O)OCC12C3CC(=O)OC1C(OC(=O)C=C(C)C)C1C(C)=CC(=O)C(OC(C)=O)C1(C)C2C(=O)C(OC(C)=O)C3C (stereo not drawn) ... 86 % of control
CC1CN1CC(O)C(O)CN1CC1C (stereo not drawn) ... 99 % of control

We next turn to a different compound, shown below.
Asked: What value of T/C has been reported for the following compound? N[C@@H](Cc1ccc(N(CCCl)CCCl)cc1)C(=O)O
Given back: 92 % of control

====

Test system: BDF1 mice, Lewis lung carcinoma iv, survival T/C
Experiment: NCI In Vivo Anticancer Drug Screen. Data for tumor model Lewis Lung Carcinoma (intravenous) in B6D2F1 (BDF1) mice
Details: endpoint: median survival time; dose: 25.0 mg/kg/injection; schedule: Q01DX009 (ip); vehicle: saline with Tween-80; higher = longer survival
Toxic doses and inconclusive results are not listed.
Entries and their T/C values follow.

Asked: What value of T/C has been reported for the following compound? COc1cc2ccnc(/C=N\NC(N)=S)c2cc1OC
Given back: 101 % of control

Asked: Entry O=[N+]([O-])c1ccc(Sc2ccncn2)c([N+](=O)[O-])c1 please
Given back: 112 % of control

Asked: Entry Cc1ccc2c(c1)N=C(Nc1ccccc1)N=S2(C)=O (centres undefined) please
Given back: 111 % of control

Asked: Entry CC(=O)Nc1ccc(Nc2ccc(C(=C3C=CC(=[N+](C)CCC#N)C=C3)c3ccc(N(C)CCC#N)cc3)cc2)cc1 please
Given back: 110 % of control

Asked: Entry Nc1cc2c3c(cccc3c1)C(=O)N(CCN1CCCC1)C2=O please
Given back: 115 % of control

Asked: Entry CCC1OCC(C(Cl)CCl)O1 (centres undefined) please
Given back: 109 % of control

Asked: Entry Nc1ccc2ccc(O)cc2c1 please
Given back: 100 % of control

Asked: Entry N#Cc1nc(C#N)c(Sc2ccccc2)c(Sc2ccccc2)c1Sc1ccccc1 please
Given back: 95 % of control

====

Test system: BDF1 mice, Lewis lung carcinoma iv, survival T/C
Test: NCI In Vivo Anticancer Drug Screen. Data for tumor model Lewis Lung Carcinoma (intravenous) in B6D2F1 (BDF1) mice
Settings: endpoint: median survival time; dose: 50.0 mg/kg/injection; schedule: Q01DX009 (ip); vehicle: saline with Tween-80
Protocol: The antitumor activity of compounds was measured in mice bearing transplantable tumors. Survival or tumor size were measured and the results are expressed as the measurement made in the treated group (T) divided by the measurement made in the vehicle treated control group (C). The tumor model used in this assay is Lewis Lung Carcinoma (intravenous) in B6D2F1 (BDF1) mice
Inconclusive results and toxic doses are left out. Rule for the calls: active = survival T/C of 150% or more; inactive = T/C below 125% in these data.
Pick one and only one: 1.0 = active, 0.0 = inactive

COc1ccc2nonc2c1 ... 0.0
COc1cc2ccnc(C=O)c2cc1OC ... 0.0
COc1cc2ccnc(/C=N\NC(N)=S)c2cc1OC ... 0.0
O=S(=O)(N=N/C=C1\C=CC=CN1O)c1cccs1 ... 0.0
O=[N+]([O-])c1cc([N+](=O)[O-])c(Nn2c3ccccc3c3ccccc32)c([N+](=O)[O-])c1 ... 0.0

Asked: Tell me the assay call for Nc1ccc2ccc(O)cc2c1 please.
Given back: 0.0

Asked: Entry NC(=S)n1cccn1 please
Given back: 0.0

====

Entries and their T/C values follow.
Tested on: BDF1 mice, Lewis lung carcinoma iv, survival T/C
Test: NCI In Vivo Anticancer Drug Screen. Data for tumor model Lewis Lung Carcinoma (intravenous) in B6D2F1 (BDF1) mice
Settings: endpoint: median survival time; dose: 200.0 mg/kg/injection; schedule: Q01DX009 (ip); vehicle: saline with Tween-80; higher = longer survival
Inconclusive results and toxic doses are left out.

Worked cases, T/C given:
CCCCCCCCCCCCCCCCCCNC(=S)N/N=C/c1ccc(Cl)cc1Cl ... 108 % of control
O=C(Nc1cccc(Cl)c1)ON1C(=O)C2C(C1=O)C1(Cl)C(Cl)C(Cl)C2(Cl)C1(Cl)Cl (centres undefined) ... 87 % of control
CC1=CC(=NN=c2cc(C)n([O-])c(C)c2)C=C(C)[N+]1=O ... 86 % of control
CC(=O)N(C)O ... 95 % of control
Cc1ccc(Cl)c2ccccc12 ... 107 % of control
Clc1ccc2c(Cl)ncnc2c1 ... 111 % of control
NC(=S)n1cccn1 ... 103 % of control
N#CCCSC(=S)C1CCCC1=N (centres undefined) ... 98 % of control

Asked: What value of T/C has been reported for the following molecule? Oc1ccc2ccccc2c1N=Nc1ccc(F)cc1
Given back: 91 % of control

Asked: Entry CN(C)c1nc(N(C)C)nc(N(C)C)n1 please
Given back: 92 % of control

Asked: Entry CCCCCCCCCCCCCCCCCC1=NC(C)CC(C)(C)O1 (centres undefined) please
Given back: 98 % of control

Asked: Entry Cc1cn(C2CC(O)C(CO)O2)c(=O)[nH]c1=O (centres undefined) please
Given back: 98 % of control

Asked: Entry Nc1ccc(Cl)cc1N please
Given back: 102 % of control

Asked: Entry O=[N+]([O-])c1ccc(-n2[nH]nnc2=S)cc1 please
Given back: 93 % of control

====

Tested on: BDF1 mice, Lewis lung carcinoma iv, survival T/C
Experiment: NCI In Vivo Anticancer Drug Screen. Data for tumor model Lewis Lung Carcinoma (intravenous) in B6D2F1 (BDF1) mice
Details: endpoint: median survival time; dose: 50.0 mg/kg/injection; schedule: Q01DX009 (ip); vehicle: saline; higher = longer survival
Toxic doses and inconclusive results are not listed.
reported.metric: T/C

Worked cases, T/C given:
NC1=NC(=O)N2CC12 (configuration not stated) ... 105 % of control
CC(C)C(N)C(=O)Nc1nncs1 (configuration not stated) ... 106 % of control
C[Si](C)(C)O/C=C1/CCOC1=O ... 107 % of control

Asked: What value of T/C has been reported for the following molecule? CCCC(=O)O
Given back: 95 % of control

Asked: Entry COc1cc2cc3cc4cc(OC)c(OC)cc4c(C)[n+]3cc2cc1OC (tested in a mixture with another compound) please
Given back: 111 % of control
